MEASUREMENT_PROTOCOL: S. pombe growth modifiers, basal conditions – strain 972, OD600, 24 h, no modulator, primary screen (AID 1090);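 also: basal condition with compound alone and no growth modifier present; test concentration not given here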
STATED_CONDITIONS: S. pombe 972 growth, higher = more signal, called active from +8 up or from −8 down
Could you label it YES if measured z-score is -0.4 or higher, and NO otherwise?

Given the entry CN1C(=O)C2C(C1=O)C1C=C(c3ccc(CO)cc3)C2C(C2CC2)N1C (configuration not stated) , answer whether its z-score meets or surpasses -0.4.
NO

Given the entry CCCNC(=O)[C@@]1(c2ccc([N+](=O)[O-])cc2)CC(=O)N(C(C)C)[C@@H]1c1ccc(CO)cc1 , answer whether its z-score meets or surpasses -0.4.
NO

Given the entry O=C1[C@H]2C=C(I)[C@H](C[C@@H]2OCCCCCCO)[C@@]12CO2 , answer whether its z-score meets or surpasses -0.4.
NO

Given the entry CC1CC/C=C\[C@H]2OC34C=CCN(CCN5CCOCC5)C(=O)[C@H]3N(CCCO)C(=O)[C@@H]4C2C(=O)O1 (some centres not stated) , answer whether its z-score meets or surpasses -0.4.
YES

Given the entry COC(=O)[C@@]1(Cc2ccc(OC)cc2)[C@H]2c3cc(C(=O)N4CCCC4)n(Cc4ccc(Cl)c(C(F)(F)F)c4)c3C[C@H]2CN1C(=O)c1ccccc1 , answer whether its z-score meets or surpasses -0.4.
YES

Given the entry CC1CC/C=C\[C@H]2OC34C=CCN(Cc5ccccc5)C(=O)[C@H]3N(CCCCCCO)C(=O)[C@@H]4C2C(=O)O1 (some centres not stated) , answer whether its z-score meets or surpasses -0.4.
NO

Given the entry CCCCC(O)C1C=CC2C(=O)N(c3ccccc3)C(=O)C2N1Nc1ccc(C#N)cc1 (configuration not stated) , answer whether its z-score meets or surpasses -0.4.
YES

====

Here, each record is paired with measured z-score data.
MEASUREMENT_PROTOCOL: calcein-AM signal in unstimulated myeloma cells – cell-based, calcein-AM fluorescence, 48 h, PK04 Diversity Set, profiling panel (AID 1166);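 also: cells grown under basal conditions without added stimulus; test concentration not given here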
STATED_CONDITIONS: RPMI8226 myeloma viability, higher = more signal
API doc: respond with a numeric literal and nothing else, no unit.

As a guide, the following entries are already answered.
{"columns": ["MOLECULE", "ENDPOINT_VALUE"],
 "data": [
  ["C=C(CCCC)/C(=C/C[C@@H](OC(C)=O)c1ccc(CO)o1)c1cnc2ccccc2c1", -1.52],
  ["CO[C@H]1O[C@H](CO)[C@@H](OC(=O)Nc2ccccc2-c2ccccc2)[C@H](OC(=O)Nc2ccccc2)[C@H]1OC(=O)Nc1ccccc1", -3.36],
  ["CC(C)NC(=O)[C@@]1(C)c2ccccc2C(=O)N(Cc2ccccc2)[C@H]1c1ccc(CO)cc1", 0.38],
  ["Cc1ccc(S[C@]2(C(=O)NCCCN(C)C)CC(=O)N(Cc3ccccc3C(F)(F)F)[C@@H]2c2ccc(CO)cc2I)cc1", -1.87],
  ["C=C(CCCC)/C(=C/C[C@H](OC(=O)c1ccncc1)c1ccc(OCCO)cc1)c1cnc2ccccc2c1", -0.499],
  ["C=C(COC)C(=O)CC[C@@H](OC(C)=O)c1ccccc1OCCO", -1.75],
  ["CCC(CC)C(O)C1C=CC2C(=O)N(c3ccccc3)C(=O)C2N1Nc1ccccc1F (configuration not stated)", 0.523],
  ["CC1CC/C=C\\[C@H]2OC34C=CCN(c5ccc6ccccc6c5)C(=O)[C@H]3N(C(C)CO)C(=O)[C@@H]4C2C(=O)O1 (some centres not stated)", -0.311],
  ["COc1cc(CO)cc(I)c1O[C@H]1C=C(C(=O)NCCO)C[C@@H](NC2CCCCCC2)[C@@H]1O", -0.334],
  ["CC(C)c1nc2cc(Br)ccc2c(=O)o1", -0.262]
]}

Write down z-score measured for item C=C(/C(=C/C[C@@H](OC(C)=O)c1cccc(OCCO)c1)c1cnc2ccccc2c1)C(C)C
-1.97

Write down z-score measured for item O=C1C2C=CC(C(O)c3ccc([N+](=O)[O-])cc3)N(Nc3ccccc3F)C2C(=O)N1c1ccccc1 (configuration not stated)
-0.958

Write down z-score measured for item CC(C)(C)OC(=O)CC[C@@]1(C(=O)NCCN2CCOCC2)N=C(c2ccc(OCCCO)cc2)O[C@@H]1c1ccccc1CN=[N+]=[N-]
-0.749

Write down z-score measured for item COC(=O)[C@]1(Cc2ccccc2)N=C(c2ccc(OCCCO)cc2)O[C@@H]1c1ccccc1CN=[N+]=[N-]
-3.97

Write down z-score measured for item CC(C)C(O)C1C=CC2C(=O)NC(=O)C2N1Nc1ccccn1 (configuration not stated)
0.11

Write down z-score measured for item CC(C)=CCCC(C)=CC(O)C1C=CC2C(=O)NC(=O)C2N1Nc1ccccn1 (configuration not stated)
0.586

Write down z-score measured for item [N-]=[N+]=NCc1ccccc1[C@@H]1OC(c2ccc(OCCCO)cc2)=N[C@]1(Cc1ccccc1N=[N+]=[N-])C(=O)NCC(O)CO (some centres not stated)
-1.57
